# System: RARa:RXR (NR concentration 270 nM, RXRa partner concentration 90 nM)
# Assay details: PBM binding z-score (relative to random genomic background probes); higher = stronger binding; sequences stand for … in GC…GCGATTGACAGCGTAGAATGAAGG
Readout kind: PBM binding z-score

Example sequences with recorded PBM binding z-score:
[[record]]
residues = "CGTCCAAGGTCAAGTTCAGTGAAAGAGACTCGAA"
target_system = "RARa:RXR (NR concentration 270 nM, RXRa partner concentration 90 nM)"
reported_value = 5.39

[[record]]
residues = "CAGCCTAGGTCAGGGCCGGTATAGGAGGAACGTT"
target_system = "RARa:RXR (NR concentration 270 nM, RXRa partner concentration 90 nM)"
reported_value = 0.69

[[record]]
residues = "CCGACTGAGGCATAAGGTTACCATAAGCCAGCCC"
target_system = "RARa:RXR (NR concentration 270 nM, RXRa partner concentration 90 nM)"
reported_value = 1.03

[[record]]
residues = "GATACAGGGTCAAGGCCAGTGTACGCGTATTGAT"
target_system = "RARa:RXR (NR concentration 270 nM, RXRa partner concentration 90 nM)"
reported_value = 4.47


The value of PBM binding z-score measured for the sequence `CGTCCAAGGTCAGAGAGGTCAGTGAGTGCCGAGT` turned out to be 5.43

The sequence listed as `CCTACTGGGCCAAGGTCATTCATCAGTCAAAGCA` shows PBM binding z-score equal to 3.84

Please fill in: PBM binding z-score reported for `GGAACGAGGGCATTCCAGTTGATAGCATGGCGAT` = 0.917

What the record says about `CCGACTGGGGCCTAAGGTTACCATAAGCCAGCCC` : PBM binding z-score is 0.85

The sequence listed as `ACTAGCAGGCCAAGGGTCATTCAAGATTAGTCCG` shows PBM binding z-score equal to 4.26
